Give Cyno T-cell Binding 0.2 uM (MFI) for every item shown.
tested-on: T1, cynomolgus monkey CD8A on primary cynomolgus monkey CD8+ T cells (cynomolgus monkey, UniProt P01732 23-235 (human entry))
T1 construct: also called Cyno CD8alpha
experimental-protocol: flow cytometry, cyno CD8+ T cells, 0.2 uM FN3
// note: answer is a bare numeric in MFI

INPUT: Requested field: Cyno T-cell Binding 0.2 uM (MFI). Item: P283AR9P1362_F12 (designed binder, FN3 domain) LPAPKNLVVSRVTEDSARLSWARNITSFDSFLIQYQESEKVGEAIVLTVPGSERSYDLTGLKPGTEYTVSIYGVDVKYDIDSRPISSNPLSAIFTT
OUTPUT: 3790

INPUT: // returns reported Cyno T-cell Binding 0.2 uM (MFI) for input P283AR9P1362_C6 (designed binder, FN3 domain) LPAPKNLVVSRVTEDSARLSWYPSDPPFDSFLIQYQESEKVGEAIVLTVPGSERSYDLTGLKPGTEYTVSIYGVPNYHSRRSYYYSNPLSAIFTT
OUTPUT: 5690

INPUT: Fill in: Cyno T-cell Binding 0.2 uM (MFI) of P282AR9P1356_A6 (designed binder, FN3 domain) LPAPKNLVVSRVTEDSARLSWSKTDSSFDSFLIQYQESEKVGEAIVLTVPGSERSYDLTGLKPGTEYTVSIYGVDVVYIEGNPVFSNPLSAIFTT is ___
OUTPUT: 5780

INPUT: Requested read-out: Cyno T-cell Binding 0.2 uM (MFI). Entry: P282DR9P1359_G7 (designed binder, FN3 domain) LPAPKNLVVSRVTEDSARLSWTAPDAAFDSFAITYIEKEHIEDGEAIVLTVPGSERSYDLTGLKPGTEYWVPIWGVKGGANSWPLSAIFTT
OUTPUT: 8770
